All values here come from paper PMC3493614.

Kd values by entry
- TESTED ON: recTsMFABP2 (Taenia solium)
- TEST DETAILS: Fluorometric ligand binding assay, recombinant TsMFABP2
- ASSAY CONTEXT: one-site saturation model; ligand 0.1-10 µM; 25°C; read-out: K d
Write down the numeric answer in µM and omit the unit.

CN(C)c1cccc2c(S(=O)(=O)NCCCCCCCCCCC(=O)O)cccc12; 9.4

Moving on to another compound below.
Q. Could you tell me which Kd is on file for CC\C=C/C=C/C=C/C=C\CCCCCCCC(=O)O [cPnA, cis-parinaric acid] ?
A. 0.64

----------
- TESTED ON: recTsMFABP2 (Taenia solium, UniProt F2WVQ3)
- Sequence (F2WVQ3 entry or part of it): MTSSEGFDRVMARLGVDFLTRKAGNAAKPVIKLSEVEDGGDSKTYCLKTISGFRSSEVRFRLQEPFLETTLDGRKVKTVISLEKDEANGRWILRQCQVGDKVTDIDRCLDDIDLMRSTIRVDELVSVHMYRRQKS
- TEST DETAILS: Fluorometric ligand binding assay, recombinant TsMFABP2
QUANTITY: Kd (µM)
Give a bare numeral; the unit µM is implied.

Q. Consider the compound shown here: CC1=C(/C=C/C(C)=C/C=C/C(C)=C/CO)C(C)(C)CCC1 [Retinol, retinol] What is its recorded Kd?
A. 980
